- Test system: A. baumannii
- protocol.details: MIC by broth dilution, A. baumannii
- Assay type: cell-based
- run.conditions: Acinetobacter baumannii; Mueller-Hinton broth, overnight 37° C.; Table 1; read-out: MIC (μg/mL) A. baumannii
Listed next: entries and their corresponding MIC.

Worked cases, MIC given:
[[record]]
smiles_record = "CCCCCCCCOc1ccccc1C(=O)Nc1ccc(C(=O)OCC[N+](C)(C)C)cc1.[Br-]"
measured_quantity = "MIC"
measured = "3 to 30 µg/mL"

[[record]]
smiles_record = "CCCCCCCCCCCOc1ccccc1C(=O)Nc1ccc(C(=O)OCC[N+](C)(CC)CC)cc1.[Br-]"
measured_quantity = "MIC"
measured = "> 30 µg/mL"

[[record]]
smiles_record = "CCCCCCCCOc1ccccc1C(=O)Nc1ccc(C(=O)OCC[N+](CC)(CC)CCCCCCC)cc1.[Br-]"
measured_quantity = "MIC"
measured = "3 to 30 µg/mL"

[[record]]
smiles_record = "CCCCOc1ccccc1C(=O)Nc1ccc(C(=O)OCC[N+](C)(CC)CC)cc1.[Br-]"
measured_quantity = "MIC"
measured = "> 30 µg/mL"

[[record]]
smiles_record = "CCCCCCCCOc1ccccc1C(=O)Nc1ccc(C(=O)OCC[N+](CC)(CC)Cc2cccc(F)c2)cc1.[Br-]"
measured_quantity = "MIC"
measured = "3 to 30 µg/mL"


May I ask what MIC has been recorded for CCCCCCCCOc1cccc(OCCCCCCCC)c1C(=O)Nc1ccc(C(=O)OCC[N+](C)(CC)CC)cc1.[Br-] ?
> 30 µg/mL

Field request: MIC | item: CCCCCCCOc1ccccc1C(=O)Nc1ccc(C(=O)NC2CC[N+](CCC)(CCC)CC2)cc1.[Br-]
> 30 µg/mL

* * *

- System: S. aureus
- protocol.details: MIC by broth dilution, S. aureus
- Format: cell-based
- run.conditions: Staphylococcus aureus; Mueller-Hinton broth, overnight 37° C.; Table 1; read-out: MIC (μg/mL) S. aureus
Measured MIC of individual entries

[[record]]
compound = "CCCCCCCCCC[N+](CC)(CC)CCOC(=O)c1ccc(NC(=O)c2ccccc2OCCCCCCCC)cc1.[Br-] [Compound 48]"
measured_quantity = "MIC"
measured = "< 3 µg/mL"

[[record]]
compound = "CCCCCCCCOc1ccccc1C(=O)Nc1ccc(C(=O)OCCCC[N+](C)(C)C)cc1.[I-] [Compound 46]"
measured_quantity = "MIC"
measured = "3 to 30 µg/mL"

[[record]]
compound = "CCCCCCCCOc1ccccc1C(=O)Nc1ccc(C(=O)OCC[N+](CC)(CC)Cc2cccc(C(F)(F)F)c2)cc1.[Br-] [Compound 40]"
measured_quantity = "MIC"
measured = "< 3 µg/mL"

[[record]]
compound = "CCCCCCCCOc1ccccc1C(=O)Nc1ccc(C(=O)OCC[N+](CC)(CC)CC2CC2)cc1.[Br-] [Compound 60]"
measured_quantity = "MIC"
measured = "3 to 30 µg/mL"

[[record]]
compound = "CCCCCCCOc1ccccc1C(=O)Nc1ccc(S(=O)(=O)NCC[N+](CC)(CC)CCCC)cc1.[Br-] [Compound 93]"
measured_quantity = "MIC"
measured = "3 to 30 µg/mL"


What does the record list as MIC for CCCCCCCOc1ccccc1C(=O)Nc1ccc(C(=O)OCC[N+](CC)(CC)CCCC)cc1.[Br-] [Compound 70] ?
< 3 µg/mL

MIC lookup needed for CCCCCCOc1ccccc1C(=O)Nc1ccc(C(=O)OCC[N+](CC)(CC)CCC)cc1.[Br-] [Compound 66] , thanks.
3 to 30 µg/mL

Which MIC is reported for this compound? CCCCCCCCOc1ccccc1C(=O)Nc1ccc(S(=O)(=O)NCC[N+](CC)(CC)CCC)cc1.[Br-] [Compound 82]
3 to 30 µg/mL

Item CCCCCCCCOc1ccccc1C(=O)Nc1ccc(C(=O)OCC[N+](CC)(CC)CCC(C)C)cc1.[Br-] [Compound 63] has what recorded MIC?
< 3 µg/mL

For the compound CCCCCCCCOc1ccccc1C(=O)Nc1ccc(C(=O)NC2CC[N+](C)(CC)CC2)cc1.[Br-] (centres unmarked) [Compound 80] , what MIC is on record?
3 to 30 µg/mL

* * *

Listing: MIC of selected molecules
- Tested on: A. baumannii
- protocol.details: MIC by broth dilution, A. baumannii
- Assay type: cell-based
- run.conditions: Acinetobacter baumannii; Mueller-Hinton broth, overnight 37° C.; Table 1; read-out: MIC (μg/mL) A. baumannii

Here's what some known entries look like.
[[record]]
smiles_record = "CCCCCCOc1ccccc1C(=O)Nc1ccc(S(=O)(=O)NCC[N+](CC)(CC)CCCCC)cc1.[Br-]"
measured_quantity = "MIC"
measured = "> 30 µg/mL"

[[record]]
smiles_record = "CCCCCOc1ccccc1C(=O)Nc1ccc(C(=O)OCC[N+](C)(CC)CC)cc1.[Br-]"
measured_quantity = "MIC"
measured = "> 30 µg/mL"

[[record]]
smiles_record = "CCCCCCCOc1ccccc1C(=O)Nc1ccc(C(=O)OCC[N+](CC)(CC)CCCC)cc1.[Br-]"
measured_quantity = "MIC"
measured = "3 to 30 µg/mL"


Looking for the measured MIC of CCCCCCCCOc1ccc(F)cc1C(=O)Nc1ccc(C(=O)OCC[N+](C)(CC)CC)cc1.[Br-] , can you help?
3 to 30 µg/mL

* * *

In this section we review reported MIC values for a set of compounds.
- Test system: S. aureus
- protocol.details: MIC by broth dilution, S. aureus
- Type: cell-based
- run.conditions: Staphylococcus aureus; Mueller-Hinton broth, overnight 37° C.; Table 1; read-out: MIC (μg/mL) S. aureus

Before answering, review these 5 worked examples.
[[record]]
compound = "CCCCCCCCOc1ccccc1C(=O)Nc1ccc(C(=O)OCC[N+](C)(CC)CC)cc1F.[Br-]"
measured_quantity = "MIC"
measured = "3 to 30 µg/mL"

[[record]]
compound = "CCCCCCCCOc1ccccc1C(=O)Nc1ccc(C(=O)N(C)C2CC[N+](CC)(CCC)CC2)cc1.[Br-] (stereo not drawn)"
measured_quantity = "MIC"
measured = "3 to 30 µg/mL"

[[record]]
compound = "CCCCCCCCCCC[N+](CC)(CC)CCOC(=O)c1ccc(NC(=O)c2ccccc2OCCCCCCCC)cc1.[Br-]"
measured_quantity = "MIC"
measured = "< 3 µg/mL"

[[record]]
compound = "CCCCCCCCOc1ccccc1C(=O)Nc1ccc(C(=O)OC2CC[N+](C)(CC)CC2)cc1.[Br-] (stereo not drawn)"
measured_quantity = "MIC"
measured = "3 to 30 µg/mL"

[[record]]
compound = "CCCCCCCCOc1ccccc1C(=O)Nc1ccc(S(=O)(=O)NCC[N+](C)(CC)CC)cc1.[Br-]"
measured_quantity = "MIC"
measured = "3 to 30 µg/mL"


So what MIC did CCCCCCCCOc1ccccc1C(=O)Nc1ccc(C(=O)OCC[N+](C)(C)C)cc1.[Br-] get with S. aureus?
3 to 30 µg/mL

Can you look up MIC on S. aureus for CCCCCCCCOc1ccccc1C(=O)Nc1ccc(C(=O)OCC[N+](CC)(CC)CCC)cc1.[Br-] ?
< 3 µg/mL

Lab note: need MIC for CCCCCCCCOc1ccccc1C(=O)Nc1ccc(C(=O)N2CC[N+](C)(CC)CC2)cc1.[Br-] on S. aureus, anyone have it?
> 30 µg/mL

API: value(readout= MIC, system= S. aureus, query= CCCCCCCCOc1ccc(C(=O)Nc2ccc(C(=O)OCC[N+](C)(CC)CC)cc2)c(OCCCCCCCC)c1.[Br-] )
> 30 µg/mL

Quick check: MIC on S. aureus, item CCCCCCOc1ccccc1C(=O)Nc1ccc(C(=O)OCC[N+](CC)(CC)CCCCC)cc1.[Br-] ?
< 3 µg/mL

Fill in the recorded MIC for this compound, with S. aureus as test system: CCCCCCCCCCCOc1ccccc1C(=O)Nc1ccc(C(=O)OCC[N+](C)(CC)CC)cc1.[Br-]
3 to 30 µg/mL

Query for S. aureus: what MIC does the record show for CCCCCCOc1ccccc1C(=O)Nc1ccc(C(=O)OCC[N+](CC)(CC)CCCC)cc1.[Br-] ?
3 to 30 µg/mL

Any idea what MIC came out for CCCCCCCCOc1ccccc1C(=O)Nc1cccc(C(=O)OCC[N+](C)(CC)CC)c1.[Br-] on S. aureus?
3 to 30 µg/mL

Hello, I am looking for reported MIC with S. aureus for CCCCCCCOc1ccccc1C(=O)Nc1ccc(C(=O)OCC[N+](CC)(CC)CCCCC)cc1.[Br-] . Could you help?
< 3 µg/mL

Lab note: need MIC with S. aureus for entry CCCCCCCCOc1ccccc1C(=O)Nc1ccc(C(=O)OCC[N+](CC)(CC)CCCCc2ccccc2)cc1.[Br-] , please look it up.
< 3 µg/mL

* * *

- Tested on: A. baumannii
- protocol.details: MIC by broth dilution, A. baumannii
- Type: cell-based
- run.conditions: Acinetobacter baumannii; Mueller-Hinton broth, overnight 37° C.; Table 1; read-out: MIC (μg/mL) A. baumannii
measured.quantity: MIC

Known MIC results, listed for orientation:
[[record]]
smiles_record = "CCCCCCCCOc1ccccc1C(=O)Nc1ccc(C(=O)OCC[N+](CC)(CC)Cc2cccc(OC)c2)cc1.[Br-]"
experimental_target = "A. baumannii"
measured = "3 to 30 µg/mL"

[[record]]
smiles_record = "CCCCCCOc1ccccc1C(=O)Nc1ccc(C(=O)OCC[N+](CC)(CC)CCC)cc1.[Br-]"
experimental_target = "A. baumannii"
measured = "> 30 µg/mL"


// next item, MIC requested
Could you share which MIC value was measured for CCCCCCCCOc1cccc(F)c1C(=O)Nc1ccc(C(=O)OCC[N+](C)(CC)CC)cc1.[Br-] ?
> 30 µg/mL

Data provenance is patent US11952330B2.
